Test system: Meloidogyne spp.
Assay: Nematocidal activity against Meloidogyne spp., application 7 days before transplantation (tomato in pots)
Assay type: in vivo
Details: tomatoes, 4,000 g/hectare, treatment 7 days before transplantation, assessment 60 days after transplantation
Method: Determination of the Nematocidal Activity Against Meloidogyne Spp. (Application 7 Days Before Transplantation) […] The product was evaluated considering the possible phytotoxic effects that can jeopardize the development of the plant (a zero-ten scale was used wherein: zero=no symptoms, 10=plant destroyed) and the effectiveness with respect to nematodes. […]
// Height of plant (cm) lookup, one value per entry
Report the value in cm with no unit label.

Reference set (5 entries):
- O=S(=O)(CCC(F)=C(F)F)c1ncc(Cl)s1 [CR1, reference compound]: 71
- Cc1nnc(S(=O)(=O)CCC=C(F)F)s1 [CR3, reference compound]: 70
- Cc1nnc(S(=O)(=O)CCC(F)=C(F)F)s1: 76
- O=S(=O)(CCC(F)=C(F)F)c1nnc(Cl)s1: 73
- Cc1nnc(SCCC(F)=C(F)F)s1 [CR2, reference compound]: 60

Please look at the following compound next.
Param readout = Height of plant (cm); param system = Meloidogyne spp.; param query = Cc1nnc([S+]([O-])CCC(F)=C(F)F)s1 (stereo not drawn) ; response: value
75

====

System: Meloidogyne spp.
Assay: Nematocidal activity against Meloidogyne spp., application with already cultivating crop (tomato in pots)
Assay type: in vivo
Conditions: tomatoes, 4,000 g/hectare, repeated treatment after transplantation (already cultivating crop), 60 days after transplantation; 100% = healthy root
Outcome measure: Root development (%)
Report the value in % with no unit label.

- Cc1nnc([S+]([O-])CCC(F)=C(F)F)s1 (stereo not shown): 100
- O=S(=O)(CCC(F)=C(F)F)c1ncc(Cl)s1 [CR1, reference compound]: 32
- Cc1nnc(S(=O)(=O)CCC(F)=C(F)F)s1: 100

Please look at the following compound next.
Reported Root development for CC(C)c1nnc(S(=O)(=O)CCC(F)=C(F)F)s1 : what is it?
95
